Origin of the recorded values: patent US8815909B2

- assay system: human Y4 receptor (Homo sapiens)
- Construct: expressed in transfected cells
- experiment notes: NPY4 cAMP HTRF Agonist Assay (inhibitory cAMP assay, Gi activation by Y4 agonism)
- Format: cell-based
- condition context: human Y4 stable CHO clonal cells, forskolin + IBMX; read-out: NPY4 cAMP HTRF Agonist Assay EC50
Below is a list of entries, each paired with its recorded pEC50 value.
# pEC50 is unitless: minus log10 of the molar concentration; print number only

Solved entries (count: 2):
> print(dat)
                                   compound  value.type  readout.value
1  N#Cc1ccc(N2CCC[C@H](N[C@@H]3CCCC[C@H]3Nc3cc(-c4ccc(OC(F)F)cc4)ccn3)C2)cc1 [Example 43, tris-trifluoroacetate]       pEC50           7.74
2  c1ccc(-c2ccnc(N[C@@H]3CCCC[C@H]3N[C@H]3CCCN(c4ccc(-n5cccn5)cc4)C3)n2)cc1 [Example 64, bis-trifluoroacetate]       pEC50           7.05

Let us move to another entry and its pEC50.
Exercise: Checklist item: pEC50 tested on human Y4 receptor (Homo sapiens), entry COC(=O)Nc1cccc(-c2cnc(N[C@@H]3CCCC[C@H]3N[C@H]3CCCN(c4ccc(C(F)(F)F)cc4)C3)o2)c1 [Example 100] , value?
Solution: 8.52

----------
- assay system: human Y4 receptor (Homo sapiens, UniProt P50391)
- Construct: expressed in transfected cells
- Sequence (P50391 whole entry): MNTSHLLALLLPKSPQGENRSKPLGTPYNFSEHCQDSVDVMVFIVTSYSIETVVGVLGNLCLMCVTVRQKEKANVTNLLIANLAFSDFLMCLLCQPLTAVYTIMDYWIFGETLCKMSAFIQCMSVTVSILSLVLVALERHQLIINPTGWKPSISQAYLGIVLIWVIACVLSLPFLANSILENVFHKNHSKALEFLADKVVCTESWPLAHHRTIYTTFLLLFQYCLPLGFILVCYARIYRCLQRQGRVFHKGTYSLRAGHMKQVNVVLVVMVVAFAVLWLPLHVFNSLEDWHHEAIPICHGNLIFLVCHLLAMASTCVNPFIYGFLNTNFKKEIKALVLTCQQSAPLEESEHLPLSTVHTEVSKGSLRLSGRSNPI
- experiment notes: NPY4 cAMP HTRF Agonist Assay (inhibitory cAMP assay, Gi activation by Y4 agonism)
- Assay type: cell-based
- condition context: human Y4 stable CHO clonal cells, forskolin + IBMX; read-out: NPY4 cAMP HTRF Agonist Assay EC50
value type: pEC50
# pEC50 is unitless: minus log10 of the molar concentration; print number only

Solved entries (count: 10):
> print(dat)
                                    compound  value.type  readout.value
 1  O=[N+]([O-])c1ccc(N2CCC[C@H](N[C@@H]3CCCC[C@H]3Nc3nc4cc(OC(F)(F)F)ccc4o3)C2)cc1 [Example 4]       pEC50           6.63
 2  O=[N+]([O-])c1ccc(N2CCC[C@H](N[C@@H]3CCCC[C@H]3Nc3ncc(-c4cccc(F)c4)o3)C2)cc1 [Example 19]       pEC50           7.64
 3  O=[N+]([O-])c1ccc(N2CCC[C@H](N[C@@H]3CCCC[C@H]3Nc3nccc(-c4ccccc4)n3)C2)cc1 [Example 32]       pEC50           7.22
 4  N#Cc1ccc(N2CCC[C@H](N[C@@H]3CCCC[C@H]3Nc3ncc(-c4ccc(OC(F)(F)F)cc4)o3)C2)c(F)c1 [Example 52]       pEC50           6.71
 5  Cc1nnc(-c2ccc(N3CCC[C@H](N[C@@H]4CCCC[C@H]4Nc4ncc(-c5ccccc5)o4)C3)cc2)o1 [Example 83, bis-trifluoroacetate]       pEC50           8.05
 6  O=[N+]([O-])c1ccc(N2CCC[C@H](N[C@@H]3CCCC[C@H]3Nc3ncc(-c4ccccc4)o3)C2)cc1 [Example 2]       pEC50           8.52
 7  O=[N+]([O-])c1ccc(N2CCC[C@H](N[C@@H]3CCCC[C@H]3Nc3cc(-c4cccc(OC(F)(F)F)c4)ccn3)C2)cc1 [Example 23]       pEC50           7.15
 8  N#Cc1ccc(N2CCC[C@H](N[C@@H]3CCCC[C@H]3Nc3noc(-c4ccccc4)n3)C2)cc1 [Example 41]       pEC50           5.60
 9  O=[N+]([O-])c1ccc(N2CCC[C@H](N[C@@H]3CCCC[C@H]3Nc3ncc(-c4ccc(O)cc4)o3)C2)cc1 [Example 12]       pEC50           9.00
10  FC(F)(F)Oc1ccc(-c2cnc(N[C@@H]3CCCC[C@H]3N[C@H]3CCCN(c4ccc(C(F)(F)F)cc4)C3)o2)cc1 [Example 71]       pEC50           7.35

Exercise: Checklist item: pEC50 tested on human Y4 receptor (Homo sapiens, UniProt P50391), entry CC(C)(C)OC(=O)/C=C\c1ccnc(N[C@@H]2CCCC[C@H]2N[C@H]2CCCN(c3ccc(C#N)cc3)C2)c1 [Example 108] , value?
Solution: 7.68

Exercise: Checklist item: pEC50 tested on human Y4 receptor (Homo sapiens, UniProt P50391), entry c1ccc(-c2ccnc(N[C@@H]3CCCC[C@H]3N[C@H]3CCCN(c4ccc(-n5cncn5)cc4)C3)n2)cc1 [Example 91, bis-trifluoroacetate] , value?
Solution: 6.54

Exercise: Checklist item: pEC50 tested on human Y4 receptor (Homo sapiens, UniProt P50391), entry N#Cc1ccc(N2CCC[C@H](N[C@@H]3CCCC[C@H]3Nc3ncc(-c4ccccc4)o3)C2)cc1 [Example 57] , value?
Solution: 7.60

----------
- assay system: human Y4 receptor (Homo sapiens, UniProt P50391)
- Construct: expressed in transfected cells
- experiment notes: NPY4 cAMP HTRF Agonist Assay (inhibitory cAMP assay, Gi activation by Y4 agonism)
- Type: cell-based
- condition context: TABLE 2, R2 is Phenyl-CN; read-out: hY4 CAMP EC50
Output schema: class label derived from EC50. Mapping: lower bin = under 0.007 µM, middle bin = from 0.007 µM up to 0.2 µM, upper bin = 0.2 µM and over

Answered cases to consult:
> print(dat)
                                   compound  assigned.label
1  CS(=O)(=O)Nc1cccc(-c2ccnc(N[C@@H]3CCCC[C@H]3N[C@H]3CCCN(c4ccc(C#N)cc4)C3)c2)c1 [Example 242]       lower bin
2  N#Cc1ccc(N2C[C@@H]3C[C@H](N[C@@H]4CCCC[C@H]4Nc4ncc(-c5ccccc5OC(F)(F)F)o4)[C@H]2C3)cc1 [Example 224]       lower bin
3  N#Cc1ccc(N2C[C@@H]3C[C@H](N[C@@H]4CCCC[C@H]4Nc4ncc(-c5cccc(C#N)c5)o4)[C@H]2C3)cc1 [Example 266]      middle bin
4  N#Cc1ccc(N2CCC[C@H](N[C@@H]3CCCC[C@H]3Nc3cc(Cc4ccn[nH]4)ccn3)C2)cc1 [Example 214]       upper bin
5  N#Cc1ccc(N2CCC[C@H](N[C@@H]3CCCC[C@H]3Nc3cc(-n4cncn4)ccn3)C2)cc1 [Example 208]       upper bin

Exercise: Input COc1ccc(-c2ccnc(N[C@@H]3CCCC[C@H]3N[C@H]3CCCN(c4ccc(C#N)cc4)C3)c2)cc1 [Example 219] ; output its category
Solution: middle bin

Exercise: Input N#Cc1ccc(N2CCC[C@H](N[C@@H]3CCCC[C@H]3Nc3ncc(-c4ccccc4OC(F)(F)F)o3)C2)cc1 [Example 226] ; output its category
Solution: lower bin

Exercise: Input N#Cc1ccc(N2CCC[C@H](N[C@@H]3CCCC[C@H]3Nc3cc(-c4ccccc4C#N)ccn3)C2)cc1 [Example 274] ; output its category
Solution: upper bin

Exercise: Input N#Cc1ccc(N2C[C@@H]3C[C@H](N[C@@H]4CCCC[C@H]4Nc4ncc(-c5ccc(C(N)=O)cc5)o4)[C@H]2C3)cc1 [Example 238] ; output its category
Solution: upper bin

Exercise: Input N#Cc1ccc(N2C[C@@H]3C[C@H](N[C@@H]4CCCC[C@H]4Nc4cc(-c5cccc(C(N)=O)c5)ccn4)[C@H]2C3)cc1 [Example 231] ; output its category
Solution: middle bin

Exercise: Input COC(=O)Nc1cccc(-c2ccnc(N[C@@H]3CCCC[C@H]3N[C@H]3CCCN(c4ccc(C#N)cc4)C3)c2)c1 [Example 201] ; output its category
Solution: lower bin

Exercise: Input N#Cc1ccc(N2CCC[C@H](N[C@@H]3CCCC[C@H]3Nc3cc(-c4ccccc4N)ccn3)C2)cc1 [Example 275] ; output its category
Solution: upper bin

----------
Below is a list of entries, each paired with its recorded log10 EC50 value.
- assay system: human Y4 receptor (Homo sapiens, UniProt P50391)
- Construct: expressed in transfected cells
- experiment notes: NPY4 cAMP HTRF Agonist Assay (inhibitory cAMP assay, Gi activation by Y4 agonism)
- Assay type: cell-based
- condition context: human Y4 stable CHO clonal cells, forskolin + IBMX; read-out: NPY4 cAMP HTRF Agonist Assay EC50
Remember, log10 of EC50, in nM.

> print(dat)
                                   compound  readout.value
1  O=[N+]([O-])c1ccc(N2CCC[C@H](N[C@@H]3CCCC[C@H]3Nc3ncc(-c4ccc(C(F)(F)F)cc4)o3)C2)cc1           2.27
2  NC(=O)c1cccc(-c2cnc(N[C@@H]3CCCC[C@H]3N[C@H]3CCCN(c4cnc(C(F)(F)F)nc4)C3)o2)c1           0.78
3  Cc1nnc(-c2ccc(N3CCC[C@H](N[C@@H]4CCCC[C@H]4Nc4nccc(-c5ccccc5)n4)C3)cc2)o1 [Example 84, bis-trifluoroacetate]           0.95

Exercise: State the recorded log10 EC50 for this entry: N#Cc1ccc(N2CCC[C@H](N[C@@H]3CCCC[C@H]3Nc3ncc(-c4ccccc4)o3)C2)c(F)c1
Solution: 2.74

Exercise: State the recorded log10 EC50 for this entry: N#Cc1ccc(N2CCC[C@H](N[C@@H]3CCCC[C@H]3Nc3cc(-c4ccc(Cl)cc4)ccn3)C2)cc1 [Example 46, tris-trifluoroacetate]
Solution: 2.32

Exercise: State the recorded log10 EC50 for this entry: FC(F)(F)Oc1ccc(-c2cnc(N[C@@H]3CCCC[C@H]3N[C@H]3CCCN(c4ccc(-n5cncn5)cc4)C3)o2)cc1 [Example 89, bis-trifluoroacetate]
Solution: 1.76

Exercise: State the recorded log10 EC50 for this entry: FC(F)(F)c1ccc(N2CCC[C@H](N[C@@H]3CCCC[C@H]3Nc3ncc(-c4ccccc4)s3)C2)cc1
Solution: 1.18

Exercise: State the recorded log10 EC50 for this entry: N#Cc1ccc(N2CCC[C@H](N[C@@H]3CCCC[C@H]3Nc3nccc(-c4ccc(OC(F)(F)F)cc4)n3)C2)cc1 [Example 59, bis-trifluoroacetate]
Solution: 2.47

Exercise: State the recorded log10 EC50 for this entry: N#Cc1ccc(N2CCC[C@H](N[C@@H]3CCCC[C@H]3Nc3cc(-c4cccc(F)c4)ccn3)C2)cc1 [Example 36, tris-trifluoroacetate]
Solution: 2.42

Exercise: State the recorded log10 EC50 for this entry: O=[N+]([O-])c1ccc(N2CCC[C@H](N[C@@H]3CCCC[C@H]3Nc3ncc(-c4ccc(OC(F)(F)F)cc4)o3)C2)cc1
Solution: 0.78

Exercise: State the recorded log10 EC50 for this entry: N#Cc1ccc(N2CCC[C@H](N[C@@H]3CCCC[C@H]3Nc3cc(Br)ccn3)C2)cc1
Solution: 2.36

Exercise: State the recorded log10 EC50 for this entry: Cc1cnn(-c2ccc(N3CCC[C@H](N[C@@H]4CCCC[C@H]4Nc4nccc(-c5ccccc5)n4)C3)cc2)c1 [Example 65, bis-trifluoroacetate]
Solution: 1.79

Exercise: State the recorded log10 EC50 for this entry: FC(F)(F)c1ccc(N2CCC[C@H](N[C@@H]3CCCC[C@H]3Nc3cc(-c4ccccc4)ccn3)C2)cc1
Solution: 2.40
